All values here come from patent US20180273528A1.

TARGET_DESC: CDK9 (Homo sapiens, UniProt P50750)
Construct: full-length human kinases from Carna Biosciences; purchased Carna Biosciences 04-110
Sequence (P50750 whole entry): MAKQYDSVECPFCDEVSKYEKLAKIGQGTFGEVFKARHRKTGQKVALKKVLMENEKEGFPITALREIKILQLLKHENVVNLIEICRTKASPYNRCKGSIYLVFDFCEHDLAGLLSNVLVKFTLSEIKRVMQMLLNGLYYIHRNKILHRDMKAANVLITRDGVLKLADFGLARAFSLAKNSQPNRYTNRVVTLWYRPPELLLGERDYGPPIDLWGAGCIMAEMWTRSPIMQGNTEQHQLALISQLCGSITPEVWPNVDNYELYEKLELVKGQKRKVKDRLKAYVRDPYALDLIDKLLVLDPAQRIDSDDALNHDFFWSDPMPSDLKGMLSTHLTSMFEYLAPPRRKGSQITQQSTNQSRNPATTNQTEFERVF
Sequence (O60563 whole entry partner): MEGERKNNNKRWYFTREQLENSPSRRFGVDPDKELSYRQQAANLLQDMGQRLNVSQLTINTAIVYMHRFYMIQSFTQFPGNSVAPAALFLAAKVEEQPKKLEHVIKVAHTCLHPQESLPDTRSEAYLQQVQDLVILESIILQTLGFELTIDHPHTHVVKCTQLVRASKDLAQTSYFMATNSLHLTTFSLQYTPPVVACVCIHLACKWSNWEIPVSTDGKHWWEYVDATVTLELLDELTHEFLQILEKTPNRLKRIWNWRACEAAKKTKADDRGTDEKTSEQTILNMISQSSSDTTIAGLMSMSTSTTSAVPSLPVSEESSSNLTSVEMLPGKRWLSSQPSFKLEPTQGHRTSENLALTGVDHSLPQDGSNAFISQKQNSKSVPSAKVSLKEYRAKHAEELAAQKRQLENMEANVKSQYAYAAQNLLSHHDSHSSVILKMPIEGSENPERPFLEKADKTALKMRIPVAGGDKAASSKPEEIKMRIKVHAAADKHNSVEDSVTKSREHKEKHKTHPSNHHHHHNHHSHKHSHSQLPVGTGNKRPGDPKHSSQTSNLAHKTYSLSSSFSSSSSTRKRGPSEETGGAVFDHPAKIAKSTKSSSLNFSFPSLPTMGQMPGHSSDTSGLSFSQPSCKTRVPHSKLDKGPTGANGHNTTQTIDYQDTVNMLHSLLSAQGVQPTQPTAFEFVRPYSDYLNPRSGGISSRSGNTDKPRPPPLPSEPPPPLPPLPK
EXPERIMENT_NOTES: Kinase TR-FRET assay, CDK9
Format: biochemical
TEST_SETTINGS: full-length human kinase, 10 μM ATP
EXPERIMENTAL_READOUT: IC50 (µM)

Example cases with answers are listed next.
Incoming: Consider the compound Cc1nc2ccc(-c3cc(N)nc(N)c3)nc2n1CC1CCOC1 (centres unmarked) [Example 41] and give its measured IC50.
Outgoing: 2.71

Incoming: Consider the compound Cc1nc2ccc(-c3cc(N)nc(N)c3)nc2n1C1CCCC1 [Example 1] and give its measured IC50.
Outgoing: 0.314

Incoming: Consider the compound Cc1nc2ccc(-c3cc(N)nc(N)c3)nc2n1Cc1ccccc1Cl [Example 47] and give its measured IC50.
Outgoing: 0.728

Incoming: Consider the compound Cc1nc2ccc(-c3cc(N)nc(N)c3)nc2n1CCCC(F)(F)F [Example 71] and give its measured IC50.
Outgoing: 1.41

A. Cc1nc2ccc(-c3cc(N)nc(N)c3)nc2n1CCC1CCCC1 [Example 92]
B. Cc1nc2ccc(-c3cc(N)nc(N)c3)nc2n1C1CCOCC1 [Example 49]
C. N#Cc1nc2ccc(-c3cc(N)nc(N)c3)nc2n1C1CCCC1 [Example 221]
D. Cc1nc2ccc(-c3cc(N)nc(N)c3)nc2n1CC(F)(F)F [Example 28]
E. Cc1nc2ccc(-c3cc(N)nc(N)c3)nc2n1CCc1cccc(C(F)(F)F)c1 [Example 91]
Incoming: Put the items in sequence by IC50, from largest down. // list labels; follow requested order
Outgoing: D, E, B, A, C

a. Cc1nc2ccc(-c3cc(N)nc(N)c3)nc2n1C1CCC1 [Example 23]
b. Cc1nc2ccc(-c3cc(N)nc(N)c3)nc2n1C(C)C [Example 53]
c. Cc1nc2ccc(-c3cc(N)nc(N)c3)nc2n1CCc1ccc2c(c1)OCO2 [Example 73]
d. Cc1nc2ccc(-c3cc(N)nc(N)c3)nc2n1C12CC3CC(CC(C3)C1)C2 [Example 56]
e. Cc1nc2ccc(-c3cc(N)nc(N)c3)nc2n1CCOc1ccccn1 [Example 217]
Incoming: Put the items in sequence by IC50, from largest down. // list labels; follow requested order
Outgoing: c, b, e, a, d
(c: 4.66 µM, b: 1.31 µM, e: 0.881 µM, a: 0.57 µM, d: 0.357 µM)

a. Cc1nc2ccc(-c3cc(N)nc(N)c3)nc2n1Cc1ccc(F)cc1 [Example 10]
b. Cc1nc2ccc(-c3cc(N)nc(N)c3)nc2n1CC(C)C [Example 31]
Incoming: Given a and given b , which shows the smaller recorded IC50? Selection: enter the item's label.
Outgoing: b

---

TARGET_DESC: DYRK1A (Homo sapiens)
EXPERIMENT_NOTES: Cellular DYRK1 autophosphorylation assay in U2-OS cells
Assay type: cell-based
Parameters: full-length, wild-type human DYRK1A (NM_001396) with an HA tag; expressed in transfected cells; host or cells: human U2-OS osteosarcoma cells, transient transfection of a pcDNA3.1 plasmid
TEST_SETTINGS: U2-OS cells transfected with HA-tagged human DYRK1A, 5 hours exposure; read-out: IC50 (μM) P-Ser520-Dyrk1A -Cell assay
Experimental: On day 2, cells were exposed to a range of concentrations of the test compounds of the invention for 5 hours. […] The relative levels of phospho-Ser520-DYRK1A were assayed using either western blotting or the Mesoscale ELISA platform. […] Chemiluminescence detection was performed using the ECL plus western blotting detection kit (Amersham) and was recorded on ECL plus hyperfilm (Amersham). […] After a further 1 hour, Read Buffer was added and plates were read on the Sector Imager 2400 (Mesoscale). […]
EXPERIMENTAL_READOUT: IC50 (µM)

a. Cc1nc2ccc(-c3cc(N)nc(N)c3)nc2n1CCc1ccccc1C(F)(F)F
b. Cc1nc2ccc(-c3cc(N)nc(N)c3)nc2n1CCOc1ncccc1Cl
c. Cc1nc2ccc(-c3cc(N)nc(N)c3)nc2n1C[C@H](C)N(C)c1ccccc1 (single isomer, unassigned)
Incoming: Rank the listed compounds according to IC50, from the largest value downward. // list labels; follow requested order
Outgoing: b, c, a
(b: 0.25 µM, c: 0.122 µM, a: 0.068 µM)

---

TARGET_DESC: DYRK1B (Homo sapiens)
Construct: full-length human kinases from Carna Biosciences; purchased Carna Biosciences 04-131
Sequence (Q9Y463 whole entry): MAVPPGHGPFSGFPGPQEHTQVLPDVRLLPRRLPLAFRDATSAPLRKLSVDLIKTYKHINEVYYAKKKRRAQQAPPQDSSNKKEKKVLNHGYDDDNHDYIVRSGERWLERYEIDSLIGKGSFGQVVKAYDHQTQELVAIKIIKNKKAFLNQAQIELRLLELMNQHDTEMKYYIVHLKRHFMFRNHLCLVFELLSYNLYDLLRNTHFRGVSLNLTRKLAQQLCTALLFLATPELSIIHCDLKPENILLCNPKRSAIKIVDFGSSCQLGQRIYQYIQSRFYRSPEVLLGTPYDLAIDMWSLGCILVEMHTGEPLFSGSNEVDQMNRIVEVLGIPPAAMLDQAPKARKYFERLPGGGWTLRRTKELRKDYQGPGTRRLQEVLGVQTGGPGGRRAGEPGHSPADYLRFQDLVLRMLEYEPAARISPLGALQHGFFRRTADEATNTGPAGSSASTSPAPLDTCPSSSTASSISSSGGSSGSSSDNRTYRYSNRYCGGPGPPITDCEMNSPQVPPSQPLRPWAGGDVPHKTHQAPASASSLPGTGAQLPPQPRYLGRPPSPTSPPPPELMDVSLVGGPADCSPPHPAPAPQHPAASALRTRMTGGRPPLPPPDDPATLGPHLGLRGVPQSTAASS
EXPERIMENT_NOTES: Kinase TR-FRET assay, DYRK1B
Type: biochemical
TEST_SETTINGS: full-length human kinase, 10 μM ATP
EXPERIMENTAL_READOUT: IC50 (µM)

Incoming: Consider the compound Cc1nc2ccc(-c3cc(N)nc(N)c3)nc2n1C[C@H](C)Oc1ccccc1 (single isomer, unassigned) and give its measured IC50.
Outgoing: 0.007

Incoming: Consider the compound Cc1nc2ccc(-c3cc(N)nc(N)c3)nc2n1C[C@@H](C)Oc1cccc(F)n1 (single isomer, unassigned) and give its measured IC50.
Outgoing: 0.007

Incoming: Consider the compound `Cc1nc2ccc(-c3cc(N)nc(N)c3)nc2n1CCOc1cccc(F)c1` and give its measured IC50.
Outgoing: 0.007

---

TARGET_DESC: DYRK1A (Homo sapiens, UniProt Q13627)
EXPERIMENT_NOTES: Kinase TR-FRET assay, DYRK1A
Type: biochemical
Set-up: full-length, wild-type human DYRK1A (NM_001396) with an HA tag; expressed in transfected cells; host or cells: human U2-OS osteosarcoma cells, transient transfection of a pcDNA3.1 plasmid
TEST_SETTINGS: full-length human kinase, 10 μM ATP
EXPERIMENTAL_READOUT: IC50 (µM)

Example cases with answers are listed next.
Incoming: Consider the compound `Cc1nc2ccc(-c3ccnc(N)c3)nc2n1CCC1CCCCC1` and give its measured IC50.
Outgoing: 0.005

Incoming: Consider the compound `COc1cc(Cl)ccc1Cn1c(C)nc2ccc(-c3cc(N)nc(N)c3)nc21` and give its measured IC50.
Outgoing: 0.245

Incoming: Consider the compound `Cc1nc2ccc(-c3cc(N)nc(N)c3)nc2n1CCCN1CCCC1=O` and give its measured IC50.
Outgoing: 0.012

Incoming: Consider the compound `Cc1nc2ccc(-c3cc(N)nc(N)c3)nc2n1CC1Cc2ccccc2C1` and give its measured IC50.
Outgoing: 0.005

A. Cc1nc2ccc(-c3cc(N)nc(N)c3)nc2n1CCOc1cccc(Br)n1
B. N#Cc1nc2ccc(-c3cc(N)nc(N)c3)nc2n1C1CCCC1
C. Cc1nc2ccc(-c3cc(N)nc(N)c3)nc2n1CC(O)CO (stereo not shown)
Incoming: Put the items in sequence by IC50, from largest down. // list labels; follow requested order
Outgoing: C, B, A
(C: 0.052 µM, B: 0.027 µM, A: 0.002 µM)

---

TARGET_DESC: His-TEV-DYRK1A Kinase domain (aa127-485) (Homo sapiens, UniProt Q13627)
Construct: His-TEV-DYRK1A Kinase domain (aa127-485); His tag (N); TEV protease cleavage site (N)
EXPERIMENT_NOTES: Kinase ADP assay (ADP Hunter), DYRK1A kinase domain
Format: biochemical
TEST_SETTINGS: 20 μM ATP
EXPERIMENTAL_READOUT: IC50 (µM)

Example cases with answers are listed next.
Incoming: Consider the molecule Cc1nc2ccc(-c3cc(N)nc(N)c3)nc2n1C[C@@H](C)N(C)c1ccccc1 (single isomer, unassigned) and give its measured IC50.
Outgoing: 0.008

Incoming: Consider the molecule `Cc1nc2ccc(-c3cc(N)nc(N)c3)nc2n1CCc1ccsc1` and give its measured IC50.
Outgoing: 0.011

Incoming: Consider the molecule COc1cccc(O[C@H](C)Cn2c(C)nc3ccc(-c4cc(N)nc(N)c4)nc32)c1 (single isomer, unassigned) and give its measured IC50.
Outgoing: 0.055

Incoming: Consider the molecule `Cc1nc2ccc(-c3cc(N)nc(N)c3)nc2n1CCc1cccc(C(F)(F)F)c1` and give its measured IC50.
Outgoing: 0.013

P. Cc1nc2ccc(-c3cc(N)nc(N)c3)nc2n1CCOc1ncccc1Cl
Q. Cc1ccccc1OCCn1c(C)nc2ccc(-c3cc(N)nc(N)c3)nc21
R. CCCCCn1c(C)nc2ccc(-c3cc(N)nc(N)c3)nc21
Incoming: Put the items in sequence by IC50, from largest down. // list labels; follow requested order
Outgoing: P, Q, R
(P: 0.085 µM, Q: 0.03 µM, R: 0.006 µM)

P. Cc1nc2ccc(-c3cc(N)nc(N)c3)nc2n1CC1CCCCC1
Q. Cc1nc2ccc(-c3cc(N)nc(N)c3)nc2n1CCOc1cccc(CF)n1
R. CC[C@H](Cn1c(C)nc2ccc(-c3cc(N)nc(N)c3)nc21)Oc1ccccc1 (single isomer, unassigned)
Incoming: Put the items in sequence by IC50, from largest down. // list labels; follow requested order
Outgoing: P, Q, R

1. N#Cc1nc2ccc(-c3cc(N)nc(N)c3)nc2n1CCOc1ccccc1
2. Cc1nc2ccc(-c3cc(N)nc(N)c3)nc2n1[C@H]1C[C@H]1Cc1ccccc1 (single isomer, unassigned)
3. Cc1nc2ccc(-c3cc(N)nc(N)c3)nc2n1C(C)Cc1ccco1 (stereo not shown)
Incoming: Put the items in order so that reported IC50 rises from first to last. // list labels; follow requested order
Outgoing: 1, 2, 3
(1: 0.023 µM, 2: 0.048 µM, 3: 0.096 µM)

A. CCC(C)n1c(C)nc2ccc(-c3cc(N)nc(N)c3)nc21 (stereo not shown)
B. Cc1nc2ccc(-c3cc(N)nc(N)c3)nc2n1CCOc1ccc(Br)cn1
Incoming: Given A and given B , which shows the smaller recorded IC50? Selection: enter the item's label.
Outgoing: A
(A: 0.018 µM, B: 0.035 µM)
